- System: glutathione S-transferase (GST) fusion protein containing the full length sequence for human cdc25A (Homo sapiens)
- Construct: made in house; host or cells: Escherichia coli
- Sequence (P30304 whole entry, the tested form may be a part): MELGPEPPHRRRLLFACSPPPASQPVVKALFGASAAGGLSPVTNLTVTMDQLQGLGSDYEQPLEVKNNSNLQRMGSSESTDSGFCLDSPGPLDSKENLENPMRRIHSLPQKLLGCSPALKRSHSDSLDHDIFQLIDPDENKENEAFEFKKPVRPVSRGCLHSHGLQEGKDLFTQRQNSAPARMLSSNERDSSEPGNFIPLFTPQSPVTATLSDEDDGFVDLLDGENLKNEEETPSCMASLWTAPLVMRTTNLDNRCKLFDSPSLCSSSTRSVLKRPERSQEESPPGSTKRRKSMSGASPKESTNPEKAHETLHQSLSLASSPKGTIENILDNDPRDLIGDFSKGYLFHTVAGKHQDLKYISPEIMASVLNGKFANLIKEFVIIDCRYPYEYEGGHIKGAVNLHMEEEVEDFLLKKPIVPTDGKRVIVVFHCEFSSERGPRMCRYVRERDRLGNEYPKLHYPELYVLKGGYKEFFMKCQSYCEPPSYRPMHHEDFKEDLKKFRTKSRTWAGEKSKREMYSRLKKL
- Protocol notes: Inhibition of CDC25A phosphatase (fluorescein diphosphate substrate)
- Format: biochemical
- Setup conditions: 10 mM dithiothreitol, fluorescein diphosphate substrate; read-out: Approximate IC50 (concentration yielding 50% inhibition of cdc25A) (converted)
Measured property: IC50 (µM)
Give just the number in µM; leave the unit off.

CC(C)CCC[C@@H](C)[C@H]1CC[C@H]2[C@@H]3CC(=O)O[C@](C)(CCCCC#N)[C@H]3CC[C@]12C ... 2.17
CC(C)CCC[C@@H](C)[C@H]1CC[C@H]2[C@@H]3CC(=O)O[C@](C)(CC/C=C\C#N)[C@H]3CC[C@]12C ... 14.5
C/C(=C\C/C=C\C#N)[C@H]1CC[C@]2(C)[C@@H]([C@H](C)CCCC(C)C)CC[C@H]2[C@@H]1CC(=O)O ... 24.2

Summary for this compound, `C=C(CCCCC#N)[C@H]1CC[C@]2(C)[C@@H]([C@H](C)CCCC(C)C)CC[C@H]2[C@@H]1CC(=O)O` : IC50 is 2.17

Summary for this compound, `C=C(CC/C=C\C#N)[C@H]1CC[C@]2(C)[C@@H]([C@H](C)CCCC(C)C)CC[C@H]2[C@@H]1CC(=O)O` : IC50 is 10.6
